Molecular target: Calmodulin-1 (Homo sapiens) (UniProt P0DP23)
Test: CALM1 binders on microarrays, EGTA buffer, profiling panel, biochemical, small-molecule microarray, Cy5-labelled CALM1 (AID 1111);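 also: labelled calmodulin applied in Tris saline Tween buffer holding calcium plus EGTA and DTT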
Settings: Cy5-CALM1 binding fluorescence, higher = more signal
readout_type: composite z-score
// response body must contain only the number

Recorded results for 3 molecules are shown here.
CC(C)N1C(=O)C[C@@](C(=O)NCc2ccccc2)(c2ccc([N+](=O)[O-])cc2)[C@H]1c1ccc(CO)cc1 :: -0.47
CCCCC=C[C@@H](NC(=O)c1ccc(C(=O)OC)cc1)c1ccccc1 :: 0.168
CCC(CC)C(O)C1C=CC2C(=O)N(c3ccccc3)C(=O)C2N1Nc1ccc(C#N)cc1 (centres undefined) :: 1.67

From here, focus on the item given below.
Given the molecule CC(C)(C)N1CC=CC23O[C@@H]4/C=C\CCCOC(=O)C4[C@H]2C(=O)N(CCO)[C@@H]3C1=O (some centres undefined) , what is its reported composite z-score?
-0.0083
